target: acetylcholinesterase (AChE) derived from human (Homo sapiens); assay: biochemical; conditions: AChE derived from human, substrate acetylthiocholine; read-out: IC₅₀ AChE
Sequence (P22303 32-614): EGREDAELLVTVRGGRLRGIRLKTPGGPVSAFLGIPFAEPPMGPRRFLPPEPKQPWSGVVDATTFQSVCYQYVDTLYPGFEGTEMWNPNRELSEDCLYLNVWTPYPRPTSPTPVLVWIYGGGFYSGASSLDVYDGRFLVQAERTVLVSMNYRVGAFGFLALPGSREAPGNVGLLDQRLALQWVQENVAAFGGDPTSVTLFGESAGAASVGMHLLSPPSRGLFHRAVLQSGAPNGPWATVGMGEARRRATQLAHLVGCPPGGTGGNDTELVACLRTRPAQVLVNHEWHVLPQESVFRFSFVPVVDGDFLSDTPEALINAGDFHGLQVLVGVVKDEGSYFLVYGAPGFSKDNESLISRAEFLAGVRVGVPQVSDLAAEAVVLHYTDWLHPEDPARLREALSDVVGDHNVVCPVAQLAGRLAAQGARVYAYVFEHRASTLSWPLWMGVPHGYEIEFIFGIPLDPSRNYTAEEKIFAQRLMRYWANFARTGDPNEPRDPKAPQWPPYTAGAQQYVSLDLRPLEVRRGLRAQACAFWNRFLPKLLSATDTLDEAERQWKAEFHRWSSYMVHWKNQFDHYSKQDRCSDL
measurement-type: pIC50
When answering, recall that pIC50 equals minus log10 of the concentration in mol/L, and write that number alone.

query: Give its pIC50 value. Item: O=C(Nc1ccc2c(=O)n(CCCC3CCN(Cc4ccccc4)CC3)oc2c1)c1ccccc1 [Example 198]
result: 9.03

query: Reported pIC50, compound CC(=O)Nc1ccc2c(CCC3CCN(Cc4ccccc4)CC3)noc2c1 [Example 6] : ____
result: 8.68

query: What value of pIC50 has been reported for the following compound? CC(=O)N(C)c1ccc2c(CCC3CCN(Cc4ccccc4)CC3)noc2c1 [Example 41]
result: 8.34

query: Recorded pIC50 of COc1ccc2c(CCC3CCN(Cc4ccccc4)CC3)noc2c1OC [Example 19] , please.
result: 8.74
